# TESTED_SYSTEM: Insulin receptor-related protein (Homo sapiens) (UniProt P14616);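 further: mean percent inhibition of IRR, reported within the GSK PKIS screening panel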
# Sequence (P14616 27-742 limits assumed): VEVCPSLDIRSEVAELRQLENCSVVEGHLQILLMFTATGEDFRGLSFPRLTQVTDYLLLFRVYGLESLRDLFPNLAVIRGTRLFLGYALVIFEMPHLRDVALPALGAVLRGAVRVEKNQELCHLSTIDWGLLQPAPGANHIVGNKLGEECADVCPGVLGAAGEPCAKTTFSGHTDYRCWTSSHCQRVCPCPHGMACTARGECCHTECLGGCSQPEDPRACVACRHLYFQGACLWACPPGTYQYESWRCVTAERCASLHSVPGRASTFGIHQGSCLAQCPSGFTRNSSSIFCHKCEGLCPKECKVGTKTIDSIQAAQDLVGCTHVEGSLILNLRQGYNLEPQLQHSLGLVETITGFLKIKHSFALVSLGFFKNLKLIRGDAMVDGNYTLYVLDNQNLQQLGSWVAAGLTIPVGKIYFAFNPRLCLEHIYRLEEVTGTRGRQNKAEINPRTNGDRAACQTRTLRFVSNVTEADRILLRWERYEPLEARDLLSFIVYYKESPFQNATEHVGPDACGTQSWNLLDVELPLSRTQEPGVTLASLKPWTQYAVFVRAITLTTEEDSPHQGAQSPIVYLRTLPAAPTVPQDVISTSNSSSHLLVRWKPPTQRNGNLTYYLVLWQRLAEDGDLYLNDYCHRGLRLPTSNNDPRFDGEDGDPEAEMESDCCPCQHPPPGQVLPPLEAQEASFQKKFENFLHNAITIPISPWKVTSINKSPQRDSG
# Sequence (P14616 747-1297 limits assumed): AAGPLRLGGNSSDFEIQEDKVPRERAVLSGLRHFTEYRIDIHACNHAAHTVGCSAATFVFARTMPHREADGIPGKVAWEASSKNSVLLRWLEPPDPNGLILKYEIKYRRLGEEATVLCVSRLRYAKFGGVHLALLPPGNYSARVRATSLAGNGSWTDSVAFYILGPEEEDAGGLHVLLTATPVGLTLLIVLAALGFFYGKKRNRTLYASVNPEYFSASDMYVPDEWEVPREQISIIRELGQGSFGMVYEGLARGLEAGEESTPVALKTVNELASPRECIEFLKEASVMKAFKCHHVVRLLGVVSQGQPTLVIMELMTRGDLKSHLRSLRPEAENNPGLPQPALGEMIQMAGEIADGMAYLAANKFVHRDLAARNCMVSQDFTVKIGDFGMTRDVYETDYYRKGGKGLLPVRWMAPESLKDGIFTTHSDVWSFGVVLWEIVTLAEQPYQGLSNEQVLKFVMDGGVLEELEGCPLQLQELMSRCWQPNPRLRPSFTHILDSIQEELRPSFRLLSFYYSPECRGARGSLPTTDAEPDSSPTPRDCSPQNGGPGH
# SETTINGS: at 0.1 µM
Property: inhibition; scope: individual compounds

COMPOUND: Fc1cccc(COc2ccc(Nc3ncnc4sc(-c5cccs5)cc34)cc2Cl)c1
inhibition [%]: -1.46

COMPOUND: COc1cc(C=NNc2ncnc3c2cnn3-c2ccccc2)ccc1O
inhibition [%]: 3.25

COMPOUND: Nc1nc(-c2ccccn2)c(-c2ccc3ncccc3n2)s1
inhibition [%]: 2.58

COMPOUND: O=C(Nc1n[nH]c2nc(-c3ccco3)c(Br)cc12)C1CC1
inhibition [%]: 2.25

COMPOUND: Cc1ccc(C(=O)NC2CCCCC2)cc1-c1ccc(C(=O)NCC2CC2)cc1
inhibition [%]: 3.13

COMPOUND: CN(C)c1cc2c(Nc3ccc4nc(Cc5ccccc5)[nH]c4c3)ncnc2cn1
inhibition [%]: 3.36

COMPOUND: COc1ccc(-c2coc3ncnc(N)c23)cc1
inhibition [%]: 1.82

COMPOUND: CNC(=O)c1cncc(/C=C/c2c(Cl)cccc2Cl)c1
inhibition [%]: 2.44

COMPOUND: CS(=O)(=O)CCNCc1nc(-c2ccc3ncnc(Nc4ccc(F)c(Cl)c4)c3c2)cs1
inhibition [%]: 2.7

COMPOUND: NS(=O)(=O)c1ccc(N/N=C2\C(=O)Nc3ccc(C(=O)NCCc4c[nH]cn4)cc32)cc1
inhibition [%]: 6.49

COMPOUND: COC(=O)Nc1nc2cc(Oc3ccc(NC(=O)Nc4cccc(C(=O)O)c4)cc3)ccc2[nH]1
inhibition [%]: 1.16

COMPOUND: COc1ccc2cc(-c3c(-c4ccncc4)nc(-c4ccc([S+](C)[O-])cc4)n3C)ccc2c1 (stereo not given)
inhibition [%]: 1.09

COMPOUND: COc1cc2ncn(-c3cc(O[C@@H](C)c4ccccc4Cl)c(C(N)=O)s3)c2cc1OC
inhibition [%]: 3.27

COMPOUND: CCn1c(-c2nonc2N)nc2cnc(Oc3cccc(NC(=O)c4ccc(OCCN5CCOCC5)cc4)c3)cc21
inhibition [%]: 1.29

COMPOUND: COc1cc(C)c(NC(=O)CN(C)C)cc1Nc1nc(Nc2cccc(F)c2C(N)=O)c2cc[nH]c2n1
inhibition [%]: 90.8

COMPOUND: [O-][S+]1CCN(Cc2ccc(-c3ccc4ncnc(Nc5ccc(OCc6ccccc6)c(F)c5)c4c3)o2)CC1
inhibition [%]: 0.94

COMPOUND: Nc1ncnc2occ(-c3ccc(NC(=O)Nc4cccc(C(F)(F)F)c4)cc3)c12
inhibition [%]: 2.2

COMPOUND: COc1cc2ncn(-c3cc(O[C@H](C)c4ccccc4Cl)c(C(N)=O)s3)c2cc1OC
inhibition [%]: 1.49

COMPOUND: COc1cc2c(cc1Nc1nc(N3CCc4ccccc43)c3cc[nH]c3n1)N(C(=O)CN(C)C)CC2
inhibition [%]: 72.3

COMPOUND: Cc1ccc(NC(=O)c2ccnc(N3CCCC3)c2)cc1-c1ccc(C(=O)NCC2CC2)cc1
inhibition [%]: 2.43

* * *

Property: inhibition; scope: individual compounds
# Tested on: Epidermal growth factor receptor (Homo sapiens), P00533 [T790M]
# Sequence (P00533 whole entry T790M): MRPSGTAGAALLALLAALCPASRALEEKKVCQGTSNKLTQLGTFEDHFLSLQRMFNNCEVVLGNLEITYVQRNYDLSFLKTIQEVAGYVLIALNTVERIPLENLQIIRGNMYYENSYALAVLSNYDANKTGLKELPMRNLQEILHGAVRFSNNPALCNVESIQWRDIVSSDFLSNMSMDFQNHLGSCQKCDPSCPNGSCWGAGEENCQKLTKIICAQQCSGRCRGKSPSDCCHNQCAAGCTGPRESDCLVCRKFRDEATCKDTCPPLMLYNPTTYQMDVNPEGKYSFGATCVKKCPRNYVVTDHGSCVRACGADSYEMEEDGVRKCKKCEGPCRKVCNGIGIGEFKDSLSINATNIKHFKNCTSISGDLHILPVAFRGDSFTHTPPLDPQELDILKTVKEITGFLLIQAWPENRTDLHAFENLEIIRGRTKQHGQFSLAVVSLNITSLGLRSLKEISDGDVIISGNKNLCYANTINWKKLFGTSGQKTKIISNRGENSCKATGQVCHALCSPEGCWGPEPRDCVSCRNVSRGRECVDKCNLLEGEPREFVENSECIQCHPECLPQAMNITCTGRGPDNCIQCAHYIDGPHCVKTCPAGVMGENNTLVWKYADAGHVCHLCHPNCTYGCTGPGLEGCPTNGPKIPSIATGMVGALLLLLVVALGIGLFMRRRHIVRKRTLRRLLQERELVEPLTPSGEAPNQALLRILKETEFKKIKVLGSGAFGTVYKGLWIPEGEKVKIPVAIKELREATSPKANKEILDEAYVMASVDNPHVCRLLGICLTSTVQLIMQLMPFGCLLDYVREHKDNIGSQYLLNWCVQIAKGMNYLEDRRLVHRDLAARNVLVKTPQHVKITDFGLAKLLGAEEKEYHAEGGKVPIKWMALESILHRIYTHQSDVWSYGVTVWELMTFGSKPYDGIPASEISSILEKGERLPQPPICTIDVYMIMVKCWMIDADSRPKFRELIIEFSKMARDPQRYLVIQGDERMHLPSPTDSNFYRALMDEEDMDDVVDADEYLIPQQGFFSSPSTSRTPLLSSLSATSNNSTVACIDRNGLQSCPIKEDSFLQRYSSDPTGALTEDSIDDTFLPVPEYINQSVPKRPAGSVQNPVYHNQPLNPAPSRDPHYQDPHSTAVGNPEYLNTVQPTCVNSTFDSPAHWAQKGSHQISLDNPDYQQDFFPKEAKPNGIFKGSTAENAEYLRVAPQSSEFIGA
# SETTINGS: at 1 µM

COMPOUND: O=C1NC(=O)C(c2ccc(Cl)cc2)=C1Nc1ccc(Cl)c(C(=O)O)c1
TESTED_SYSTEM: Epidermal growth factor receptor (Homo sapiens), P00533 [T790M]
UNIT_ABBREVIATION: %
inhibition: -1.21

COMPOUND: O=C1NC(=O)C(c2cccc(Cl)c2)=C1Nc1ccc(O)c(Cl)c1
TESTED_SYSTEM: Epidermal growth factor receptor (Homo sapiens), P00533 [T790M]
UNIT_ABBREVIATION: %
inhibition: -0.85

COMPOUND: CS(=O)(=O)CCNCc1ccc(-c2ccc3ncnc(Nc4ccc(OCc5ccccc5)c(Cl)c4)c3c2)o1
TESTED_SYSTEM: Epidermal growth factor receptor (Homo sapiens), P00533 [T790M]
UNIT_ABBREVIATION: %
inhibition: 17.8

COMPOUND: COC(=O)Nc1nc2cc(Oc3cccc(NC(=O)Nc4cc(C(F)(F)F)ccc4F)c3)ccc2[nH]1
TESTED_SYSTEM: Epidermal growth factor receptor (Homo sapiens), P00533 [T790M]
UNIT_ABBREVIATION: %
inhibition: -1.93

COMPOUND: CC(=O)Nc1cccc(C#Cc2cncnc2Nc2ccc(OCc3cccc(F)c3)c(Cl)c2)n1
TESTED_SYSTEM: Epidermal growth factor receptor (Homo sapiens), P00533 [T790M]
UNIT_ABBREVIATION: %
inhibition: 9.1

COMPOUND: O=C(Nc1n[nH]c2nc(-c3ccco3)c(Br)cc12)C1CC1
TESTED_SYSTEM: Epidermal growth factor receptor (Homo sapiens), P00533 [T790M]
UNIT_ABBREVIATION: %
inhibition: -0.71

COMPOUND: CC1=C(C(=O)Nc2ccc3[nH]ncc3c2)C(c2ccc(F)cc2)NC(=O)N1 (centres undefined)
TESTED_SYSTEM: Epidermal growth factor receptor (Homo sapiens), P00533 [T790M]
UNIT_ABBREVIATION: %
inhibition: 0.87

COMPOUND: CCCN1CCC=C(c2ccc(Nc3nc(Nc4ccccc4C(N)=O)c4cc[nH]c4n3)c(C)c2)C1
TESTED_SYSTEM: Epidermal growth factor receptor (Homo sapiens), P00533 [T790M]
UNIT_ABBREVIATION: %
inhibition: 25.1

COMPOUND: Fc1cccc(COc2ccc(Nc3ncnc4cc(-c5ccc[nH]5)sc34)cc2Cl)c1
TESTED_SYSTEM: Epidermal growth factor receptor (Homo sapiens), P00533 [T790M]
UNIT_ABBREVIATION: %
inhibition: 2.62
